These entries and their values trace back to patent US8895585B2.

A collection of compounds and their measured pIC50
# System Tested: glutathione S-transferase (GST)-fused full-length human Syk protein (Homo sapiens)
# Construct: (GST)-fused full-length human Syk protein; GST (glutathione S-transferase); purchased Carna Biosciences
# Assay Comment: Syk enzyme assay
# Format: biochemical
# Measurement Context: Syk enzyme assay, Test Example 1; read-out: IC50 of Syk-inhibitory activity
pIC50: −log10 of the molar value.

Solved cases below.
Compound: CC(=O)Nc1ccc(-c2cncc(Nc3nc(N[C@@H]4CCCC[C@@H]4N)c(F)cc3C(N)=O)c2)cc1
pIC50: > 8.00
--
Compound: NC(=O)c1cc(F)c(N[C@@H]2CCCC[C@@H]2N)nc1Nc1cncc(C2CC2)c1 [Example 006-167]
pIC50: > 8.00
--
Compound: CCOCCOCCOc1nccc2c(Nc3nc(N[C@@H]4CCCC[C@@H]4N)c(F)cc3C(N)=O)cccc12 (relative stereo)
pIC50: 7.30 to 8.00
--
Compound: Cc1ncc(Nc2nc(NC3CCCCC3N)c(F)cc2C(N)=O)cc1-c1ccccc1 (stereo not drawn)
pIC50: > 8.00
--
Compound: CCC[C@@H](Nc1nc(Nc2ccnc(-c3ccc(OC)cc3)c2)c(C(N)=O)cc1F)[C@H](C)N
pIC50: > 8.00
--
Compound: NC(=O)c1cc(F)c(NC2CCCCC2N)nc1Nc1cncc(NC(=O)c2cccc(F)c2)c1 (stereo not drawn)
pIC50: 7.30 to 8.00

[in] Return reported pIC50; argument: CCn1nc(C2CC2)c2cc(Nc3nc(N[C@H](CC4CC4)[C@H](C)N)c(F)cc3C(N)=O)ccc21
[out] > 8.00

[in] Query (compound): CCOc1ccc2cc(Nc3nc(NC4CCCCC4N)c(F)cc3C(N)=O)ccc2n1 (stereo not drawn) ; field requested: pIC50
[out] > 8.00

[in] I have this compound here, COc1cccc(-c2cncc(Nc3nc(N[C@@H](CN)CC(C)C)c(F)cc3C(N)=O)c2)c1F , and I need its recorded pIC50.
[out] 7.30 to 8.00

[in] Given NC(=O)c1cc(F)c(N[C@@H]2CCCC[C@@H]2N)nc1Nc1cnc2c(ccn2CCN2CCCC2)c1 , state its recorded pIC50.
[out] 7.30 to 8.00

[in] Please give the measured pIC50 for this compound: CCc1nn(CC)c2ccc(Nc3nc(N[C@H](CC)[C@H](C)N)c(F)cc3C(N)=O)cc12
[out] > 8.00
